- TARGET SYSTEM: T1, soluble human CD74 (human, UniProt P04233-2 73-232, limits assumed)
- T1 construct: CD74' flowed over as analyte; also called human CD74 protein
- T1 sequence (looked up): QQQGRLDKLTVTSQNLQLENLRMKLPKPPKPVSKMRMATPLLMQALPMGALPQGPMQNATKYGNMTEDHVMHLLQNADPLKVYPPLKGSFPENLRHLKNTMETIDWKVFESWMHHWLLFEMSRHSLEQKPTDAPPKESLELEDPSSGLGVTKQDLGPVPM
- EXPERIMENT: SPR, Biacore 8K; IgG captured by anti-IgG Fc, soluble CD74 as analyte; 1:1 model, apparent kinetics
Think of 200000 M⁻¹ s⁻¹ as a floor: if kon stands on it or above, it is yes; beneath it, no.

Illustrative cases are given below, each with its answer.
Hcmil x LCmil_NQ (antibody, V domains shown, Tested as IgG; also called hLL1 heavy chain with hLL1 (NQ) light chain) VH: QVQLQQSGSELKKPGASVKVSCKASGYTFTNYGVNWIKQAPGQGLQWMGWINPNTGEPTFDDDFKGRFAFSLDTSVSTAYLQISSLKADDTAVYFCSRSRGKNEAWFAYWGQGTLVTVSS VL: DIQLTQSPLSLPVTLGQPASISCRSSQSLVHRNQNTYLHWFQQRPGQSPRLLIYTVSNRFSGVPDRFSGSGSGTDFTLKISRVEAEDVGVYFCSQSSHVPPTFGAGTRLEIK : no
VHmil x VK1bNQ (antibody, V domains shown, Tested as IgG; also called VHmil × VK1bNQ; hLL1 heavy chain with hzLL1-Vk1b (NQ) light chain) VH: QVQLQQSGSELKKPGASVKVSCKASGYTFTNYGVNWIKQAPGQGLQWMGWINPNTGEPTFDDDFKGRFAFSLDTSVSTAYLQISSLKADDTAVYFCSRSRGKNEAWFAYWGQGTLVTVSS VL: DVVMTQSPLSLPVTLGQPASISCRSSQSLVHRNQNTYLHWYQQRPGQSPRLLIYTVSNRFSGVPDRFSGSGSGTDFTLKISRVEAEDVGVYFCSQSSHVPPTFGQGTKLEIK : yes
milatuzumab (antibody, V domains shown, also called hLL1; WT IgG) VH: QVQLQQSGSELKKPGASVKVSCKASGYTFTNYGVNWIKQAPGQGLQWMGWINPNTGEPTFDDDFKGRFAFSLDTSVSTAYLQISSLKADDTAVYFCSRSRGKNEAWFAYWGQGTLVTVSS VL: DIQLTQSPLSLPVTLGQPASISCRSSQSLVHRNGNTYLHWFQQRPGQSPRLLIYTVSNRFSGVPDRFSGSGSGTDFTLKISRVEAEDVGVYFCSQSSHVPPTFGAGTRLEIK : no

Task: Could you tell me if the measured kon of Mil_HCx hzVk1b (antibody, V domains shown, Tested as IgG; also called hLL1 heavy chain with hzLL1-Vk1b light chain) VH: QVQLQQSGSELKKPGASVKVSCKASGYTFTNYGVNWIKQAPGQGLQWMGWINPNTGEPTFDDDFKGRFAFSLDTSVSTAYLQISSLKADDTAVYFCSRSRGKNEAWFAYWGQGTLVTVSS VL: DVVMTQSPLSLPVTLGQPASISCRSSQSLVHRNGNTYLHWYQQRPGQSPRLLIYTVSNRFSGVPDRFSGSGSGTDFTLKISRVEAEDVGVYFCSQSSHVPPTFGQGTKLEIK reaches 200000 M⁻¹ s⁻¹ or more?
Result: yes

Task: Is kon at least 200000 M⁻¹ s⁻¹? Consider Mil_HCx hzVk1a (antibody, V domains shown, Tested as IgG; also called hLL1 heavy chain with hzLL1-Vk1a light chain) VH: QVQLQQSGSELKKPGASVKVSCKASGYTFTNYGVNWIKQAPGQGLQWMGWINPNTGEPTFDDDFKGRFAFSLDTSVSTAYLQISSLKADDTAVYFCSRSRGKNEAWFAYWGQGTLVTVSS VL: DIVMTQTPLSLPVTPGEPASISCRSSQSLVHRNGNTYLHWYLQKPGQSPQLLIYTVSNRFSGVPDRFSGSGSGTDFTLKISRVEAEDVGVYFCSQSSHVPPTFGQGTKLEIK
Result: yes
